Data origin, for the record: patent US7378435B2

Target: GABA A receptor α5β3γ2 (Homo sapiens, UniProt P18507+P31644)
Construct: expressed in transfected cells; host or cells: HEK293 (transiently transfected for the human receptors)
Assay: [3H]flumazenil competition binding, human GABA A α5β3γ2 receptors expressed in HEK293 cells
Settings: human α5β3γ2, 0.5 nM [3H]flumazenil, mean of two determinations; read-out: Ki[μM] hα5
Method: The affinity of compounds at GABA A receptor subtypes was measured by competition for [3H]flumazenil (85 Ci/mmol; Roche) binding to HEK293 cells expressing rat (stably transfected) or human (transiently transfected) receptors of composition α1β3γ2, α2β3γ2, α3β3γ2 and α5β3γ2. […]
The following compounds are shown together with reported Ki values.

LINE NOTATION	Ki (µM)
Cc1onc(-c2ccc(F)cc2)c1C(=O)c1c[nH]c2cc(C(=O)NCCCN3CCOCC3)ccc12	0.0043
Cc1onc(-c2ccc(F)cc2)c1C(=O)c1c[nH]c2cc(C(=O)NC3CCOCC3)ccc12	0.005
Cc1onc(-c2ccccc2)c1C(=O)c1c[nH]c2cc(C(=O)NCc3ccccn3)ccc12	0.00395
Cc1onc(-c2ccccc2)c1C(=O)c1c[nH]c2cc(C(=O)NC3CCOCC3)ccc12	0.00545
Cc1onc(-c2ccc(F)cc2)c1C(=O)c1c[nH]c2cc(C(=O)NC3CCC3)ccc12	0.00675
Cc1onc(-c2ccc(F)cc2)c1C(=O)c1c[nH]c2cc(C(=O)NC3CC3)ccc12	0.00305
Cc1onc(-c2ccccc2)c1C(=O)c1c[nH]c2cc(C(=O)NC3CCC3)ccc12	0.00435
Cc1onc(-c2ccccc2)c1C(=O)c1c[nH]c2cc(C(=O)NCC3CC3)ccc12	0.00545
Cc1onc(-c2cccc(F)c2)c1C(=O)c1cn(-c2ccccc2)c2cc(C(=O)NC3CCOCC3)ccc12	0.0098
C#CCNC(=O)c1ccc2c(C(=O)c3c(-c4ccccc4)noc3C)c[nH]c2c1	0.0029
Cc1onc(-c2ccccc2)c1C(=O)c1c[nH]c2cc(C(=O)NC3CC3)ccc12	0.003
C#CCNC(=O)c1ccc2c(C(=O)c3c(-c4ccc(F)cc4)noc3C)c[nH]c2c1	0.00325
Cc1onc(-c2ccc(F)cc2)c1C(=O)c1c[nH]c2cc(C(=O)NCCN3CCOCC3)ccc12	0.00455
Cc1onc(-c2ccc(F)cc2)c1C(=O)c1c[nH]c2cc(C(=O)NCc3ccncc3)ccc12	0.00365
Cc1onc(-c2ccc(F)cc2)c1C(=O)c1c[nH]c2cc(C(=O)NCC3CC3)ccc12	0.00645
Cc1onc(-c2ccccc2)c1C(=O)c1c[nH]c2cc(C(=O)NCCc3cnc[nH]3)ccc12	0.00265
Cc1onc(-c2ccc(F)cc2)c1C(=O)c1c[nH]c2cc(C(=O)NCCO)ccc12	0.00185
Cc1onc(-c2ccccc2)c1C(=O)c1c[nH]c2cc(C(=O)NCc3ccco3)ccc12	0.0053
Cc1onc(-c2ccc(F)cc2)c1C(=O)c1c[nH]c2cc(C(=O)NCCc3cnc[nH]3)ccc12	0.0026
Cc1onc(-c2ccc(F)cc2)c1C(=O)c1c[nH]c2cc(C(=O)NCc3ccccn3)ccc12	0.00565
Cc1onc(-c2ccc(F)cc2)c1C(=O)c1c[nH]c2cc(C(=O)NCc3ccco3)ccc12	0.00484
Cc1onc(-c2ccccc2)c1C(=O)c1c[nH]c2cc(C(=O)NCCN3CCOCC3)ccc12	0.0033
Cc1onc(-c2ccc(F)cc2)c1C(=O)c1c[nH]c2cc(C(=O)NC3CCCC3)ccc12	0.00975
Cc1onc(-c2ccc(F)cc2)c1C(=O)c1c[nH]c2cc(C(=O)NCc3cccnc3)ccc12	0.00225
C#CCNC(=O)c1ccc2c(C(=O)c3c(-c4cccc(F)c4)noc3C)cn(-c3ccccc3)c2c1	0.0085
